reportedEndpoint: melting point

1. CN1CCc2c([nH]c3c(NS(=O)(=O)c4cccc5nonc45)cccc23)C1; 246 to 247 °C
2. CCCN1CCc2c([nH]c3ccc(NS(=O)(=O)c4c(Cl)nc5sccn45)cc23)C1; 206 to 207 °C
3. CN1CCc2c([nH]c3cc(NS(=O)(=O)c4c(Cl)nc5sccn45)ccc23)C1; 225 to 227 °C
4. CN1CCc2c([nH]c3ccc(NS(=O)(=O)c4c(Cl)nc5sccn45)cc23)C1; 232 to 233 °C
5. CN1CCc2c([nH]c3cccc(NS(=O)(=O)c4ccc5c(Cl)cccc5c4)c23)C1; 245 to 247 °C
6. O=S(=O)(Nc1ccc2[nH]c3c(c2c1)CCN(CC(F)(F)F)C3)c1ccc2c(Cl)cccc2c1; 164 to 166 °C
7. CN1CCc2c([nH]c3c(NS(=O)(=O)c4c(Cl)nc5sccn45)cccc23)C1; 230 to 232 °C
8. Cc1c(S(=O)(=O)Nc2ccc3[nH]c4c(c3c2)CCN(C)C4)sc2ccc(Cl)cc12; 259 to 260 °C
9. CN1CCc2c([nH]c3c(NS(=O)(=O)c4ccc5c(Cl)cccc5c4)cccc23)C1; 256 to 257 °C
10. O=S(=O)(Nc1ccc2[nH]c3c(c2c1)CCN(CC(F)(F)F)C3)c1c(Cl)nc2sccn12; 232 to 233 °C
11. CN1CCc2c([nH]c3c(NS(=O)(=O)c4ccc5ccccc5c4)cccc23)C1; 240 to 242 °C
12. CN1CCc2c([nH]c3ccc(NS(=O)(=O)c4cc5ccccc5o4)cc23)C1; 165 to 166 °C
13. CN1CCc2c([nH]c3cccc(NS(=O)(=O)c4csc5ccccc45)c23)C1; 236 to 237 °C
14. CN1CCc2c([nH]c3cccc(NS(=O)(=O)c4cccc5ccccc45)c23)C1; 217 to 218 °C
15. CC(=O)Nc1ccc(S(=O)(=O)Nc2ccc3[nH]c4c(c3c2)CCN(C)C4)cc1; 232 to 234 °C
16. CN1CCc2c([nH]c3c(NS(=O)(=O)c4cccc5ccccc45)cccc23)C1; 259 to 260 °C
17. CN1CCc2c([nH]c3cc(NS(=O)(=O)c4ccc5c(Cl)cccc5c4)ccc23)C1; 257 to 259 °C
18. CN1CCc2c([nH]c3ccc(NS(=O)(=O)c4ccc5ccc(Cl)cc5c4)cc23)C1; 230 to 231 °C
19. CCN1CCc2c([nH]c3ccc(NS(=O)(=O)c4ccc5ccccc5c4)cc23)C1; 174 to 176 °C

###

- target: 5HT6-human recombinant receptor (Homo sapiens, UniProt P50406)
- Sequence (P50406 whole entry): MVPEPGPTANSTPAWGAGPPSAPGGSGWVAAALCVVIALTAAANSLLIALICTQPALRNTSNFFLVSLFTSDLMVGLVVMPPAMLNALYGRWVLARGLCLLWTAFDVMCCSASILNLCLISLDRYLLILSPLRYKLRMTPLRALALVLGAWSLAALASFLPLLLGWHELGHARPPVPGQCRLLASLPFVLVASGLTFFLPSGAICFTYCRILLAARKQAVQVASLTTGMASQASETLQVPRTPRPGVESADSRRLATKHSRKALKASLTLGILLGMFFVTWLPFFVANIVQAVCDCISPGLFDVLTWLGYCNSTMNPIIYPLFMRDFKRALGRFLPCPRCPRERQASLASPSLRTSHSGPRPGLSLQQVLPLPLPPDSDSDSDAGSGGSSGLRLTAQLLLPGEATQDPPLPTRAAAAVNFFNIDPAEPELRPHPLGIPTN
- method: Binding to Serotonin Receptor 5HT6 ([3H]-LSD radioligand displacement, HEK-293 cell membranes)
- runConditions: [3H]-LSD 2.7 nM; HEK-293 membranes; non-linear regression EBDA/LIGAND
Examples of compounds with documented Ki follow.
reportedEndpoint: Ki (nM)

1. CCN1CCc2c([nH]c3ccc(NS(=O)(=O)c4c(Cl)nc5sccn45)cc23)C1; 1.1
2. CCCN1CCc2c([nH]c3ccc(NS(=O)(=O)c4c(Cl)nc5sccn45)cc23)C1; 2
3. CN1CCc2c([nH]c3ccc(NS(=O)(=O)c4csc5ccccc45)cc23)C1; 2.8
4. CN1CCc2c([nH]c3ccc(NS(=O)(=O)c4ccc5ccccc5c4)cc23)C1; 15.9
5. CN1CCc2c([nH]c3c(NS(=O)(=O)c4csc5ccccc45)cccc23)C1; 29.7
6. CCN1CCc2c([nH]c3ccc(NS(=O)(=O)c4csc5ccccc45)cc23)C1; 36.7
7. CN1CCc2c([nH]c3ccc(NS(=O)(=O)c4c(Cl)nc5sccn45)cc23)C1; 0.9
8. CN1CCc2c([nH]c3cc(NS(=O)(=O)c4c(Cl)nc5sccn45)ccc23)C1; 8

###

- target: 5HT6-human recombinant receptor (Homo sapiens, UniProt P50406)
- Construct: purchased Receptor Biology; host or cells: HEK-293 cell membranes
- method: Binding to Serotonin Receptor 5HT6 ([3H]-LSD radioligand displacement, HEK-293 cell membranes)
- runConditions: compound at 10^−7 M; [3H]-LSD 2.7 nM; HEK-293 membranes; 60 min, 37° C.
reportedEndpoint: inhibition at 0.1 µM (%)

1) CN1CCc2c([nH]c3ccc(NS(=O)(=O)c4ccc5c(Cl)cccc5c4)cc23)C1; 70.6
2) CN1CCc2c([nH]c3c(NS(=O)(=O)c4csc5ccccc45)cccc23)C1; 87.1
3) CN1CCc2c([nH]c3cc(NS(=O)(=O)c4c(Cl)nc5sccn45)ccc23)C1; 90
4) CN1CCc2c([nH]c3ccc(NS(=O)(=O)c4ccc5cc(Cl)ccc5c4)cc23)C1; 85
5) CCN1CCc2c([nH]c3ccc(NS(=O)(=O)c4csc5ccccc45)cc23)C1; 84.6
6) CN1CCc2c([nH]c3ccc(NS(=O)(=O)c4csc5ccccc45)cc23)C1; 79.5
7) CN1CCc2c([nH]c3c(NS(=O)(=O)c4ccc5ccccc5c4)cccc23)C1; 73.5
8) CCN1CCc2c([nH]c3ccc(NS(=O)(=O)c4c(Cl)nc5sccn45)cc23)C1; 97
9) CCCN1CCc2c([nH]c3ccc(NS(=O)(=O)c4c(Cl)nc5sccn45)cc23)C1; 87.9
10) CN1CCc2c([nH]c3ccc(NS(=O)(=O)c4ccc5ccccc5c4)cc23)C1; 89.7
11) CN1CCc2c([nH]c3ccc(NS(=O)(=O)c4c(Cl)nc5sccn45)cc23)C1; 80.7
12) Cc1ccc2sc(S(=O)(=O)Nc3ccc4[nH]c5c(c4c3)CCN(C)C5)cc2c1; 71.1
13) CC(C)N1CCc2c([nH]c3ccc(NS(=O)(=O)c4c(Cl)nc5sccn45)cc23)C1; 81.8

###

melting point values by entry
reportedEndpoint: melting point

1. O=S(=O)(Nc1ccc2[nH]c3c(c2c1)CCN(CC(F)(F)F)C3)c1csc2ccccc12; 173 to 175 °C
2. CCN1CCc2c([nH]c3ccc(NS(=O)(=O)c4csc5ccccc45)cc23)C1; 215 to 216 °C
3. CN1CCc2c([nH]c3c(NS(=O)(=O)c4cccc5c(Cl)cccc45)cccc23)C1; 251 to 252 °C
4. CN1CCc2c([nH]c3ccc(NS(=O)(=O)c4cccc5ccccc45)cc23)C1; 245 to 246 °C
5. CN1CCc2c([nH]c3c(NS(=O)(=O)c4cccc5nsnc45)cccc23)C1; 238 to 240 °C
6. CN1CCc2c([nH]c3ccc(NS(=O)(=O)c4csc5ccccc45)cc23)C1c1ccccc1 (stereo not drawn); 232 to 234 °C
7. CN1CCc2c([nH]c3ccc(NS(=O)(=O)c4ccc5cc(Cl)ccc5c4)cc23)C1; 174 to 175 °C
8. CC(C)N1CCc2c([nH]c3ccc(NS(=O)(=O)c4c(Cl)nc5sccn45)cc23)C1; 234 to 235 °C
9. Cc1ccc2sc(S(=O)(=O)Nc3ccc4[nH]c5c(c4c3)CCN(C)C5)cc2c1; 241 to 242 °C
10. CC(=O)Nc1nc(C)c(S(=O)(=O)Nc2ccc3[nH]c4c(c3c2)CCN(C)C4)s1; 199 to 200 °C
11. O=S(=O)(Nc1ccc2[nH]c3c(c2c1)CCNC3)c1c(Cl)nc2sccn12; 242 to 244 °C
12. CN1CCc2c([nH]c3cccc(NS(=O)(=O)c4c(Cl)nc5sccn45)c23)C1; 252 to 253 °C
13. CN1CCc2c([nH]c3ccc(NS(=O)(=O)c4ccc(F)c5ccccc45)cc23)C1; 236 to 238 °C
14. CCN1CCc2c([nH]c3ccc(NS(=O)(=O)c4c(Cl)nc5sccn45)cc23)C1; 219 to 222 °C
15. CN1CCc2c([nH]c3c(NS(=O)(=O)c4cc5ccccc5o4)cccc23)C1; 229 to 231 °C
16. CN1CCc2c([nH]c3cc(NS(=O)(=O)c4csc5ccccc45)ccc23)C1; 255 to 257 °C
17. CN1CCc2c([nH]c3ccc(NS(=O)(=O)c4cccc5c(N(C)C)cccc45)cc23)C1; 241 to 242 °C
18. CN1CCc2c([nH]c3ccc(NS(=O)(=O)c4ccc(N)cc4)cc23)C1; 236 to 237 °C
19. CN1CCc2c([nH]c3c(NS(=O)(=O)c4cccc5c(N(C)C)cccc45)cccc23)C1; 225 to 226 °C
20. CN1CCc2c([nH]c3ccc(NS(=O)(=O)c4csc5ccccc45)cc23)C1; 224 to 226 °C
21. CN1CCc2c([nH]c3ccc(NS(=O)(=O)c4ccc5ccccc5c4)cc23)C1c1ccccc1 (stereo not drawn); 255 to 260 °C
22. CN1CCc2c([nH]c3ccc(NS(=O)(=O)c4ccc5ccccc5c4)cc23)C1; 244 to 245 °C
23. CN1CCc2c([nH]c3ccc(NS(=O)(=O)c4cccc5nsnc45)cc23)C1; 244 to 245 °C
24. CN1CCc2c([nH]c3c(NS(=O)(=O)c4csc5ccccc45)cccc23)C1; 225 to 226 °C
